The origin of these recorded values is PubChem BioAssay (NCI).

- System: TK-10 renal
- experiment description: NCI tumour cell line growth inhibition, 48 h
The entries below come with measured TGI values attached.

| compound | unit text | relation operator | TGI |
| --- | --- | --- | --- |
| COc1ccc(-c2c(-c3cc(OC)c4c(c3)OCO4)noc2N)cc1 | µM | = | 49.7 |
| COc1c(O)c2c(=O)cc(OC)c3c4c(OC)cc(=O)c5c(O)c(OC)c6c(c(c1C(C(C)=O)C6C(C)O)c23)c54 (stereo not given) | µM | = | 3.65 |
| COc1ccc(-c2csc(-c3cc(Cl)cc(Cl)c3Cl)n2)cc1 | µM | > | 100 |
| CCCCC#CC#Cc1cccc(=O)o1 | µM | = | 28.3 |
| Cc1cc(C)c(S(=O)(=O)ONC(=O)OC(C)(C)C)c(C)c1 | µM | > | 100 |
